protocol.notes: Volume of distribution in Sprague-Dawley rat at 1 mg/kg, iv and 1 mg/kg, po
Assay type: ADME, organism-based
condition.info: in vivo
parameter.measured: Vd (L/kg)

{"item.smiles": "C[C@@H]1CN(Cc2ncccn2)C[C@H]1c1nc2c(cnn2C2CCOCC2)c(=O)[nH]1", "recorded.measurement": 2}

----------
protocol.notes: Volume of distribution in dog at 0.3 mg/kg, iv and 0.3 mg/kg, po
Format: ADME, organism-based, Canis lupus familiaris
condition.info: in vivo
parameter.measured: Vd (L/kg)

{"molecule": "C[C@@H]1CN(Cc2ncccn2)C[C@H]1c1nc2c(cnn2C2CCOCC2)c(=O)[nH]1 [EDELINONTRINE]", "parameter.measured": "Vd", "uom": "L/kg", "recorded.measurement": 2}
